test system: SK-OV-3 ovarian; assay: NCI-60 one-dose screen, 48 h (100 = growth as untreated, 0 = no growth, -100 = all killed); conditions: 10 µM unless noted
This is part of a sample that, as a whole, favours compounds with a hit. Of some 83,000 tested, about 20% had one in any assay. Calls of active or inactive are those of the source. How the source made its calls: active means growth percent below 10; inactive means the rest.
observation.type: growth

>>> recorded_measurement("CC(C)(C)C(=O)OCOP(=O)(OCOC(=O)C(C)(C)C)C1CCCN(OC(=O)c2ccccc2)C1=O (stereo not drawn)")
"20.6% (inactive)"
>>> recorded_measurement("Cc1oc2c(C(=O)N/N=C\\c3ccc(O)cc3O)c[nH]c2c1C")
"20.6% (inactive)"
>>> recorded_measurement("COc1cnc2c(c1)C(=O)c1c-2n(CCCn2ccnc2)c(=O)c2cc(Cl)ccc12")
"-28% (active)"
>>> recorded_measurement("CN(C)CCn1c(=O)c2c3cc4c(cc3n(CCN(C)C)c2c2ccc(Cl)cc21)OCO4")
"41.3% (inactive)"
>>> recorded_measurement("COC(=O)[C@H](C)NC(=O)[C@@H](OC)[C@@H]1Cc2cc3cc(OC4CC(OC5CC(O)C(O)C(C)O5)C(O)C(C)O4)c(C)c(O)c3c(O)c2C(=O)[C@H]1OC1CC(OC2CC(OC3CC(C)(O)C(O)C(C)O3)C(O)C(C)O2)C(O)C(C)O1 (stereo partly drawn)")
"22.6% (inactive)"
>>> recorded_measurement("CCCCCCCCCNCCCCCCCCC")
"92.6% (inactive)"
>>> recorded_measurement("Cc1cc(N2CCCC2)nc(N(CCCNc2ccnc3cc(Cl)ccc23)Cc2ccc3c(c2)OCO3)n1")
"53.5% (inactive)"
>>> recorded_measurement("O=C(Cn1ccnc1)Nc1ccc(-c2nc3ccccc3s2)cc1")
"87.8% (inactive)"

----------
test system: NCI-H460 lung; assay: NCI-60 one-dose screen, 48 h; details: 10 µM unless noted
This is part of a sample that, as a whole, favours compounds with a hit. Of some 83,000 tested, about 20% had one in any assay. Active and inactive are the calls of the source. Rule for the calls: active = growth percent below 10; inactive = the rest.
Classes used: class 1 for active, class 0 for inactive

>>> assigned_label("COc1ccc2c(c1)cn1c3ccc(O)cc3nc(N)c21")
"class 1"
>>> assigned_label("C[C@@H](Oc1cc(C(=O)Nc2ccc(C(=O)N3CCN(C)CC3)cc2)nnc1N)c1c(Cl)ccc(F)c1Cl")
"class 0"
>>> assigned_label("S=C(NCc1ccc2c(c1)OCO2)N1CCN(c2ncnc3c2oc2ccccc23)CC1")
"class 0"
>>> assigned_label("O=C1NC(=O)C(c2cnc3ccccn23)=C1c1cn2c3c(cc(F)cc13)CN(C(=O)N1CCCCC1)CC2")
"class 0"
>>> assigned_label("CCCCCCCC12Cc3ccccc3C1=Nc1c(c3ccccc3n1C)C2=O (centres undefined)")
"class 0"
>>> assigned_label("COc1ccc(C(=O)c2cc(OC)c(OC)c(OC)c2)cc1/C=C/C(=O)c1ccc(F)cc1")
"class 0"
>>> assigned_label("Cc1nc(N)sc1-c1ccnc(Nc2ccc(N3CCOCC3)cc2)n1")
"class 0"
>>> assigned_label("CNC(=O)c1ccccc1Nc1nc(Nc2ccc3c(c2OC)CCC[C@H](N2CCN(CCO)CC2)C3)ncc1Cl")
"class 1"
>>> assigned_label("O=C(NO)c1ccc(Cn2c(=O)n(-c3ccccc3F)c(=O)c3ccccc32)cc1")
"class 0"
>>> assigned_label("CNc1ncc2cc(-c3cc(NC(=O)NCCC(C)(C)C)c(F)cc3C)c(C)nc2n1")
"class 0"
>>> assigned_label("COC(=O)Nc1nc2ccc(C(=O)c3ccc(N(C)C4COC4)cc3)cc2[nH]1")
"class 1"
>>> assigned_label("CNC(=O)c1nn(C)c2c1C(C)(C)Cc1cnc(Nc3ccc(N4CCN(C)CC4)cc3)nc1-2")
"class 1"
>>> assigned_label("COc1cc2nc(Nc3cccc(Cl)c3)nc(N)c2cc1OC")
"class 0"
>>> assigned_label("CC(C)(C)OC(=O)N1CCC(O)[C@@H](O[Si](c2ccccc2)(c2ccccc2)C(C)(C)C)[C@H]1/C=C/c1ccccc1 (some centres undefined)")
"class 0"
>>> assigned_label("CCc1ccc(C2=C(O)C(=O)C(c3ccc(CC)cc3)=C(O)C2=O)cc1")
"class 1"
>>> assigned_label("NS(=O)(=O)c1ccc(CCN2C(=O)/C(=C\\c3ccc(Cl)cc3)C=C2c2ccc3ccccc3c2)cc1")
"class 0"
>>> assigned_label("Cc1cc2c(-c3nc4ccccn4c3NC34CC5CC(CC(C5)C3)C4)c(O)c(O)cc2c(O)c1-c1c(C)cc2c(-c3nc4ccccn4c3NC34CC5CC(CC(C5)C3)C4)c(O)c(O)cc2c1O")
"class 1"
>>> assigned_label("COc1cc2c3c(c1)nc(C)n3CCC2")
"class 0"
>>> assigned_label("C=CCC(=O)N[C@H](/C=C/C(=O)O)Cc1ccc(-c2cc(Cl)cc(Cl)c2)cc1")
"class 0"

----------
test system: HOP-62 NSCLC; test: NCI-60 one-dose screen, 48 h (100 = growth as untreated, 0 = no growth, -100 = all killed); conditions: 10 µM unless noted
About 83,000 compounds went through this panel and 20% of them were active in at least one assay; those are over-represented in the sample as a whole.
growth vs 50%: less than gives class 1; not less than gives class 0.

>>> assigned_label("CC(=Nc1ccccc1)C1=C(O)C(Cc2ccccc2)NC1=O (stereo not given)")
"class 1"
>>> assigned_label("C[C@@H](N)c1ccc(C(=O)Nc2ccnc3[nH]ccc23)cc1")
"class 1"
>>> assigned_label("C=CC(=O)Nc1cccc(Oc2nc(Nc3ccc(N4CCN(C)CC4)cc3)nc3ccsc23)c1")
"class 1"
>>> assigned_label("O=C(CNc1nc(-c2ccc(Cl)cc2)cs1)Nc1ccc(-c2nc3ccccc3s2)cc1")
"class 0"
>>> assigned_label("COc1cccc(NC(=O)Nc2ccc(Nc3ncnc4sc5c(c34)CCN(C(=O)CCl)C5)cc2)c1")
"class 0"
>>> assigned_label("CN1CCC(COc2cnc(-c3cccc(Cn4nc(-c5cccc(C#N)c5)ccc4=O)c3)nc2)CC1")
"class 1"
>>> assigned_label("Cc1sc2c(c1C)c(=O)nc1c(-c3nc(-c4ccccc4)cs3)n[nH]n12")
"class 0"
>>> assigned_label("Clc1ccc2c(NCCCNCc3ccc4c(c3)OCO4)ccnc2c1")
"class 1"
>>> assigned_label("COc1cc(C(=O)NNC(=O)c2ccc(NC(=O)CCl)cc2)cc(OC)c1OC")
"class 0"

----------
system: SF-295 CNS; experiment: NCI-60 one-dose screen, 48 h (100 = growth as untreated, 0 = no growth, -100 = all killed); settings: 10 µM unless noted
About 83,000 compounds went through this panel and 20% of them were active in at least one assay; those are over-represented in the sample as a whole.
# maps each entry to its growth
observation.type: growth (%)

>>> recorded_measurement("CCCCCCCC(=O)SCC/C=C/[C@@H]1CC(=O)NCc2nc(co2)C2=N[C@@](C)(CS2)C(=O)N[C@@H](C(C)C)C(=O)O1")
-62.5
>>> recorded_measurement("Cc1ccc(NC(=O)c2ccc(CN3CCN(C)CC3)cc2)cc1Nc1nc(-c2cccnc2)cs1")
3.18
>>> recorded_measurement("CC(C)(O)CC(=O)NCCn1ccc2ncnc(Nc3ccc(Oc4cccc(C(F)(F)F)c4)c(Cl)c3)c21")
31
>>> recorded_measurement("COc1cc(-c2cc(-c3ccc(Nc4ccnc5cc(Cl)ccc45)cc3)nc(N3CCOCC3)n2)cc(OC)c1OC")
6.95

----------
test system: SW-620 colon; test: NCI-60 one-dose screen, 48 h; details: 10 µM unless noted
About 83,000 compounds went through this panel and 20% of them were active in at least one assay; those are over-represented in the sample as a whole. The source made the active and inactive calls. The calls were made as follows: active = growth percent below 10; inactive = the rest.
Classes used: active, inactive

>>> assigned_label("O=C1C=CC2(NN=C(c3ccccc3)N2c2cccc(Cl)c2)c2cccc(O)c21 (centres undefined)")
"inactive"
>>> assigned_label("CC(C)NC[C@@H](C(=O)N1CCN(c2ncnc3c2[C@H](C)C[C@H]3O)CC1)c1ccc(Cl)cc1")
"inactive"
>>> assigned_label("COc1cc2cc(NCc3ccc(Cl)cc3)nc(C)c2cc1OC")
"inactive"
>>> assigned_label("CCOc1cccc(/C=N/NC(=O)c2ccccc2Nc2ccnc(C(F)(F)F)c2)c1O")
"inactive"
>>> assigned_label("CCc1cnn2c(NCc3ccc[n+]([O-])c3)cc(N3CCCC[C@H]3CCO)nc12")
"active"
>>> assigned_label("COc1cnc2c(c1)C(=O)c1c-2n(CCCn2ccnc2)c(=O)c2cc(Cl)ccc12")
"inactive"
>>> assigned_label("CC(=O)C1=C(C)NC(SCc2nnc(-c3ccc(C)cc3)o2)=NC1c1ccc(F)cc1 (centres undefined)")
"inactive"
>>> assigned_label("COc1cc(NCCN(CC(C)C)CC(C)C)c2ncc(C)cc2c1")
"inactive"
>>> assigned_label("Cn1cc(-c2cnn3c(N)c(Br)c([C@@H]4CCCNC4)nc23)cn1")
"inactive"
>>> assigned_label("O=C(Nc1ccc(C(=O)Nc2ccc(C3=NCCCN3)cc2)cc1)Nc1ccc(C2=NCCCN2)cc1")
"inactive"
>>> assigned_label("NC1(c2ccc(-c3nc4ccn5c(=O)[nH]nc5c4cc3-c3ccccc3)cc2)CCC1")
"inactive"
>>> assigned_label("COc1ccc(-c2cc3c(oc2=O)-c2ccccc2OC3OC(C)=O)cc1 (centres undefined)")
"inactive"
>>> assigned_label("Cc1cn(-c2cc(NC(=O)c3ccc(C)c(Nc4nccc(-c5cnccn5)n4)c3)cc(C(F)(F)F)c2)cn1")
"inactive"
>>> assigned_label("Cc1cc(O)c2c(c1)C1OC(=O)CCCCCN1C1=C2C(=O)c2cccc(OC3CC(O)C(O)C(C)O3)c2C1=O (centres undefined)")
"inactive"
>>> assigned_label("CC1(C=O)NC(=O)NC1=O (centres undefined)")
"inactive"
>>> assigned_label("COC(=O)c1ccc2c(C(=Nc3ccc(N(C)C(=O)CN4CCN(C)CC4)cc3)c3ccccc3)c(O)[nH]c2c1")
"inactive"
>>> assigned_label("CC(C)=CCc1cc2c(cc1O)C1=C(C(=O)C3=C(C1=O)S(=O)(=O)CCN3)C(C=C(C)C)O2 (centres undefined)")
"active"
>>> assigned_label("CCN1/C(=C/C=C/c2n(-c3ccccc3)c3ccc(-c4nc5ccccc5s4)cc3[n+]2CC)N(c2ccccc2)c2ccc(-c3nc4ccccc4s3)cc21")
"inactive"
>>> assigned_label("CC(=O)OCCC/C(=C\\c1ccc2ccccc2c1)[N+](=O)[O-]")
"active"
